# target_or_system: ATP-sensitive inward rectifier potassium channel 11 (Homo sapiens)
# experimental_details: Channel opening activity at human bladder Kir6.2 channel containing SUR2B expressed in L cells by FLIPR assay
measurement_type: EC50 (µM)
Numbers only; they are read as µM.

Known EC50 results, listed for orientation:
(Q) Field request: EC50 | item: COc1cnccc1C(=O)NC(N/C(=N/C#N)Nc1ccc(Cl)nc1)C(C)(Cl)Cl (centres undefined)
(A) 6.61

(Q) I have this molecule here, CC(Cl)(Cl)C(NC(=O)c1cccc(F)c1)N/C(=N/C#N)Nc1ccc(Cl)nc1 (centres undefined) , and I need its recorded EC50.
(A) 5.37

(Q) Returns the measured EC50 for the input molecule. Input: CC(Cl)(Cl)C(NC(=O)c1cc(Cl)cc(Cl)c1)N/C(=N/C#N)Nc1cncc(Br)c1 (centres undefined)
(A) 2.63

(Q) Need EC50, item CC(Cl)(Cl)C(NC(=O)c1cc(Cl)cc(Cl)c1)N/C(=N/C#N)Nc1ccc(F)nc1 (centres undefined)
(A) 2.04

(Q) Given the molecule COc1cc(OC)cc(C(=O)NC(N/C(=N/C#N)Nc2ccc(Cl)nc2)C(C)(Cl)Cl)c1 (centres undefined) , what is its reported EC50?
(A) 8.91

More entries:
(Q) // returns reported EC50 for input CC(Cl)(Cl)C(NC(=O)c1ccc(OC(F)(F)F)cc1)N/C(=N/C#N)Nc1ccc(F)nc1 (centres undefined)
(A) 8.91

(Q) What value of measured EC50 is listed for Cc1ccc(C(=O)NC(N/C(=N/C#N)Nc2ccc(Cl)nc2)C(C)(Cl)Cl)cc1 (centres undefined) ?
(A) 0.912

(Q) Suppose we examine the molecule CC(Cl)(Cl)C(NC(=O)c1cc(Cl)cc(Cl)c1)N/C(=N/C#N)Nc1ccc(Cl)nc1 (centres undefined) ; what EC50 value has been reported?
(A) 0.813

(Q) Given CC(Cl)(Cl)C(NC(=O)c1cc(F)cc(F)c1)N/C(=N/C#N)Nc1ccc(C(F)(F)F)nc1 (centres undefined) , state its recorded EC50.
(A) 1.18

(Q) Which measured EC50 value corresponds to Cc1cccc(C(=O)NC(N/C(=N/C#N)Nc2ccc(C(F)(F)F)nc2)C(C)(Cl)Cl)c1 (centres undefined) ?
(A) 2.57

(Q) Which EC50 is reported for this molecule? CC(Cl)(Cl)C(NC(=O)c1ccc(I)cc1)N/C(=N/C#N)Nc1ccc(Cl)nc1 (centres undefined)
(A) 0.891

(Q) For the molecule shown here, Cc1ccc(C(=O)NC(N/C(=N/C#N)Nc2ccc(C(F)(F)F)nc2)C(C)(Cl)Cl)cc1 (centres undefined) , give the reported EC50.
(A) 3.8

(Q) Given CC(Cl)(Cl)C(NC(=O)c1ccc(C(F)(F)F)cc1)N/C(=N/C#N)Nc1ccc(C(F)(F)F)nc1 (centres undefined) , state its recorded EC50.
(A) 26.9

(Q) Quick one: EC50 for CC(Cl)(Cl)C(NC(=O)c1cccs1)N/C(=N/C#N)Nc1ccc(C(F)(F)F)nc1 (centres undefined) ?
(A) 1.74

(Q) Field request: EC50 | item: CC(Cl)(Cl)C(NC(=O)c1cccc(Cl)c1)N/C(=N/C#N)Nc1ccc(Cl)nc1 (centres undefined)
(A) 1.66

(Q) // EC50 lookup, key: CC(Cl)(Cl)C(NC(=O)c1ccc(F)cc1)N/C(=N/C#N)Nc1ccc(F)nc1 (centres undefined)
(A) 11.7

(Q) Reported EC50 for COc1ncccc1NC(=NC#N)NC(NC(=O)c1ccc(Cl)cc1)C(C)(Cl)Cl (centres undefined) : what is it?
(A) 9.77

###

pEC50 values, listed per item
# target_or_system: ATP-sensitive inward rectifier potassium channel 11 (Homo sapiens, UniProt Q14654)
# experimental_details: Channel opening activity at human bladder Kir6.2 channel containing SUR2B expressed in L cells by FLIPR assay
The quantity pEC50 is defined as the negative base-10 logarithm of the molar concentration.

Guide cases for pEC50, answers given:
(Q) Please provide the recorded pEC50 for CC(Cl)(Cl)C(NC(=O)c1cc(Cl)cc(Cl)c1)N/C(=N/C#N)Nc1ccc(C(F)(F)F)nc1 (stereo not given) , tested on ATP-sensitive inward rectifier potassium channel 11 (Homo sapiens, UniProt Q14654).
(A) 5.43

(Q) Fill in the recorded pEC50 for this compound, with ATP-sensitive inward rectifier potassium channel 11 (Homo sapiens, UniProt Q14654) as test system: Cc1cncc(N/C(=N\C#N)NC(NC(=O)c2ccc(Cl)cc2)C(C)(Cl)Cl)c1 (stereo not given)
(A) 6.12

(Q) Query pEC50 on ATP-sensitive inward rectifier potassium channel 11 (Homo sapiens, UniProt Q14654) for CC(Cl)(Cl)C(NC(=O)c1cc(F)cc(F)c1)N/C(=N/C#N)Nc1ccc(Cl)nc1 (stereo not given)
(A) 5.96

(Q) # get_value(readout= pEC50, system= ATP-sensitive inward rectifier potassium channel 11 (Homo sapiens, UniProt Q14654)) for CC(Cl)(Cl)C(NC(=O)c1ccc(Cl)cc1)N/C(=N/C#N)Nc1ccccc1F (stereo not given)
(A) 4.92

Now for another entry.
(Q) For the record CC(Cl)(Cl)C(NC(=O)c1ccc(F)cc1)N/C(=N/C#N)Nc1ccc(Cl)nc1 (stereo not given) , what value of pEC50 is listed for ATP-sensitive inward rectifier potassium channel 11 (Homo sapiens, UniProt Q14654)?
(A) 5.89

###

# Lookup of reported EC50 keyed by entry
# target_or_system: ATP-sensitive inward rectifier potassium channel 11 (Homo sapiens)
# Sequence (Q14654 whole entry): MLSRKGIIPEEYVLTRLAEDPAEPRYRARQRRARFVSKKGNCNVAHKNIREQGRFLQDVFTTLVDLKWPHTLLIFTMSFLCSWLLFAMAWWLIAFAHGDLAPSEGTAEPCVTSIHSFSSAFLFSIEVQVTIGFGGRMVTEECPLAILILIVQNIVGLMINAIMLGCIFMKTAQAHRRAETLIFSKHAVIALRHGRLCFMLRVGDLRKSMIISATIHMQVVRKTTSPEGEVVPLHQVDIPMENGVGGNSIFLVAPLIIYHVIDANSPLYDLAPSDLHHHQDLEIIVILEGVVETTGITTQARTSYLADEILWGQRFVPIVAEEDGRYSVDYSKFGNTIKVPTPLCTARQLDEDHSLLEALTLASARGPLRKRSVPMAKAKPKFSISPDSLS
# experimental_details: Channel opening activity at human bladder Kir6.2 channel containing SUR2B expressed in L cells by FLIPR assay
Give just the number in nM; leave the unit off.

Consider the following illustrative entries.
(Q) For CC(Cl)(Cl)[C@H](NC(=O)c1ccc(Cl)cc1)N/C(=N/C#N)Nc1ccc(Cl)nc1 , what is its reported EC50?
(A) 2140

(Q) // lookup EC50 for CC(Cl)(Cl)C(NC(=O)c1cccc(Cl)c1)N/C(=N/C#N)Nc1cncc(Br)c1 (centres undefined)
(A) 776

(Q) Would you kindly share the measured EC50 for CC(Cl)(Cl)C(NC(=O)c1ccc(Br)cc1)N/C(=N/C#N)Nc1ccc(Cl)nc1 (centres undefined) ?
(A) 537

Let's switch to this molecule now.
(Q) // returns reported EC50 for input CC(Cl)(Cl)C(NC(=O)c1ccc(F)cc1)N/C(=N/C#N)Nc1cncc(Br)c1 (centres undefined)
(A) 955

###

# target_or_system: ATP-sensitive inward rectifier potassium channel 11 (Homo sapiens, UniProt Q14654)
# experimental_details: Channel opening activity at human bladder Kir6.2 channel containing SUR2B expressed in L cells by FLIPR assay
This section presents compounds with their documented EC50 values.
Lab book: enter the figure in µM, no units written.

(Q) May I ask what EC50 has been recorded for Cc1cccc(C(=O)NC(N/C(=N/C#N)Nc2ccc(Cl)nc2)C(C)(Cl)Cl)c1 (centres undefined) ?
(A) 1.7

New cases:
(Q) Fill in: EC50 of CC(Cl)(Cl)C(NC(=O)c1ccc(Cl)cc1)NC(=NC#N)Nc1cccnc1Cl (centres undefined) is ___
(A) 6.03

(Q) Any idea what EC50 was measured for Cc1cccc(C(=O)NC(N/C(=N/C#N)Nc2ccc(F)nc2)C(C)(Cl)Cl)c1 (centres undefined) ?
(A) 4.27

(Q) Param item = Cc1ccc(C(=O)NC(N/C(=N/C#N)Nc2ccc(F)nc2)C(C)(Cl)Cl)cc1 (centres undefined) ; retrieve measured EC50.
(A) 4.27

(Q) What value of measured EC50 is listed for CC(Cl)(Cl)C(NC(=O)c1ccccc1)N/C(=N/C#N)Nc1ccc(Cl)nc1 (centres undefined) ?
(A) 2.04

(Q) Looking for the measured EC50 of CC(Cl)(Cl)C(NC(=O)c1ccc(Cl)cc1)N/C(=N/C#N)Nc1ccc(C(F)(F)F)nc1 (centres undefined) , can you help?
(A) 1.62

(Q) I have this compound here, CC(Cl)(Cl)C(NC(=O)c1cc(F)cc(F)c1)N/C(=N/C#N)Nc1ccc(F)nc1 (centres undefined) , and I need its recorded EC50.
(A) 4.27

(Q) Given CC(Cl)(Cl)C(NC(=O)c1ccc(OC(F)(F)F)cc1)N/C(=N/C#N)Nc1ccc(Cl)nc1 (centres undefined) , state its recorded EC50.
(A) 5.37

(Q) Which EC50 is listed for CC(Cl)(Cl)C(NC(=O)c1ccc(Cl)cc1)N/C(=N/C#N)Nc1cncc(Br)c1 (centres undefined) ?
(A) 0.646

(Q) I would be grateful if you could share the reported EC50 for CC(Cl)(Cl)C(NC(=O)c1ccc(I)cc1)N/C(=N/C#N)Nc1ccc(C(F)(F)F)nc1 (centres undefined) .
(A) 7.76

(Q) Query: EC50; subject: CC(Cl)(Cl)C(NC(=O)c1ccc(Cl)cc1)N/C(=N/C#N)Nc1ccc(F)nc1 (centres undefined)
(A) 1.51

(Q) # get_value(readout='EC50', item= Cc1ccc(C(=O)NC(N/C(=N/C#N)Nc2cncc(Br)c2)C(C)(Cl)Cl)cc1 (centres undefined) )
(A) 1.32

(Q) Recorded EC50 for CC(Cl)(Cl)C(NC(=O)c1ccc(F)cc1)N/C(=N/C#N)Nc1ccc(C(F)(F)F)nc1 (centres undefined) , please?
(A) 2.09

(Q) What does the record list as EC50 for CC(Cl)(Cl)C(NC(=O)c1ccc(C(F)(F)F)cc1)N/C(=N/C#N)Nc1ccc(Cl)nc1 (centres undefined) ?
(A) 5.01
